Just for reference, ChEMBL document CHEMBL1128240 is where these values come from.

- Test name: Partition coefficient (logP)
- Type: physicochemical
- Study conditions: octanol/water; read-out: logP
Parameter measured: logP
The response must contain the number and no unit.

Compound string: Cn1nnc(O)c1Cc1ccc2ccccc2c1
logP: 2.12

Fill in: logP of c1ccc2cc(Cc3nnn[nH]3)ccc2c1 is ___
0.72

Fill in: logP of O=C(O)CCc1ccc2ccccc2c1 is ___
1.09

* * *

- Test name: Dissociation constant measured by potentiometric titration (in duplicate) in 1:1 dioxane-water using a Fisher accumet pH meter model 630 and a Perkin-Elmer chart recorder model 56.
- Assay type: physicochemical
Measured pKa values are reported for all entries that follow.
The response must contain the number and no unit.

Known pKa results, listed for orientation:
Molecule: Cn1nnc(O)c1Cc1ccc2ccccc2c1
pKa: 9.11

Molecule: CC1(COc2ccc(CC3SC(=O)NC3=O)cc2)CCCCC1 (centres undefined) [CIGLITAZONE]
pKa: 7.8

Molecule: O=C(O)CCc1ccc2ccccc2c1
pKa: 6.52

Fill in: pKa of c1ccc2cc(Cc3nnn[nH]3)ccc2c1 is ___
5.77
